- ASSAY OVERVIEW: Pharmacokinetics after oral SNZ in tumor mice and PGF tumor mice
- Assay type: in vivo, Balb/c mice
- TEST CONDITIONS: Balb/c, mouse, plasma, po, 109.2 mg/kg, t1/2, PGF tumor mice, oral SNZ 109.2 mg/kg, mean
ENDPOINT NAME: half-life (min)

INSERT INTO results (compound, endpoint_name, measurement_unit, reported_measurement) VALUES
  ('OC[C@H]1O[C@@H](OCCc2ccc(O)cc2)[C@H](O)[C@@H](O)[C@@H]1O [Salidroside, salidroside]', 'half-life', 'min', 20.4);

* * *

- ASSAY OVERVIEW: Pharmacokinetics after oral SNZ in tumor mice and PGF tumor mice
- Type: in vivo, Balb/c mice
- TEST CONDITIONS: Balb/c, mouse, plasma, po, 109.2 mg/kg, tmax, PGF tumor mice, oral SNZ 109.2 mg/kg, mean
ENDPOINT NAME: Tmax (min)

INSERT INTO assay_data (compound, endpoint_name, reported_measurement) VALUES
  ('OC[C@H]1O[C@@H](OCCc2ccc(O)cc2)[C@H](O)[C@@H](O)[C@@H]1O [Salidroside, salidroside]', 'Tmax', 18);

* * *

- ASSAY OVERVIEW: Pharmacokinetics after oral SNZ in normal Balb/c mice and pseudo-germfree
- Type: in vivo
- TEST CONDITIONS: Balb/c, mouse, plasma, po, 109.2 mg/kg, cmax, normal Balb/c mice, oral SNZ 109.2 mg/kg, mean
ENDPOINT NAME: Cmax

INSERT INTO results (molecule, reported_measurement) VALUES
  ('OCCc1ccc(O)cc1', '126 ng/mL'),
  ('OC[C@H]1O[C@@H](OCCc2ccc(O)cc2)[C@H](O)[C@@H](O)[C@@H]1O [Salidroside, salidroside]', '257 ng/mL');

* * *

- ASSAY OVERVIEW: Pharmacokinetics after oral SNZ in normal Balb/c mice and pseudo-germfree
- Type: in vivo
- TEST CONDITIONS: Balb/c, mouse, plasma, po, 109.2 mg/kg, cmax, PGF mice, oral SNZ 109.2 mg/kg, mean
ENDPOINT NAME: Cmax (ng/mL)

INSERT INTO measurements (compound, measurement_unit, reported_measurement) VALUES
  ('OC[C@H]1O[C@@H](OCCc2ccc(O)cc2)[C@H](O)[C@@H](O)[C@@H]1O [Salidroside, salidroside]', 'ng/mL', 82.7);

* * *

- ASSAY OVERVIEW: Pharmacokinetics after oral SNZ in normal Balb/c mice and pseudo-germfree
- Assay type: in vivo
- TEST CONDITIONS: Balb/c, mouse, plasma, po, 109.2 mg/kg, t1/2, PGF mice, oral SNZ 109.2 mg/kg, mean
ENDPOINT NAME: half-life (min)

INSERT INTO results (compound, reported_measurement) VALUES
  ('OC[C@H]1O[C@@H](OCCc2ccc(O)cc2)[C@H](O)[C@@H](O)[C@@H]1O [Salidroside, salidroside]', 14.2);

src = paper PMC10568112
